# EXPERIMENT DESCRIPTION: Tertiary RLuc qRT-PCR qHTS assay for Zika virus inhibitors (AID 1347169); further: nearly all actives have a fitted effect of over 55% in size
# CONDITION DETAILS: infected Vero cells, reporter luminescence, 48-72 h; series mostly up to 45.9 µM
Results filed as inconclusive are left out. Activity calls are given as the source filed them. The call rests on the fitted dose curve; in most records, active means well fitted inhibition curve with a large enough effect; inconclusive means small, poorly fitted or top-dose-only effect; inactive means no such curve, though single readings can be large or run the other way. Where a SMILES comes first, the peptide text is derived from it. The star is where a group is joined. Hexanoyl = CCCCCC(=O)*
Classes used: T for active, F for inactive

MOLECULE	LABEL
CC1C(O)C(O)C2C(C(=O)OCCc3ccc(O)cc3)=COC(O[C@@H]3O[C@H](CO)[C@@H](O)[C@H](O)[C@H]3O)C12 (some centres not stated)	F
CC1(C)[C@H]2C[C@H](C/C=C\CCCC(=O)O)[C@@H](NC(=O)c3csc4ccc(O)cc34)[C@@H]1C2	F
C/C=C/C=C/C=C/C(=O)O[C@@H]1[C@@H](OC)C2=C(C(=O)N(C(CCC(=O)O)C(=O)O)C2)[C@@]2(C)CCCC(C)(C)[C@H]12 (some centres not stated)	F
COc1cc2c(c(OC)c1O)C(c1ccc(O)cc1)C1C(=O)OC3C(COC(=O)C1=C2)OC(CO)(OC1OC(COC(=O)/C=C/c2ccc(OC4OC(C)C(O)C(O)C4O)cc2)C(O)C(O)C1O)C3O (configuration not stated)	F
CCCCCC(=O)N1CCC[C@H]1C(=O)N[C@@H](Cc1ccc(O)cc1)C(=O)OC (Hexanoyl-Pro-Tyr-OMe)	F
COc1cccc(CNc2ccc(S(=O)(=O)Nc3nc4ccccc4s3)cc2)c1O	T
O=C(O)CC1CCC(c2ccc(-c3ccc(Nc4ccc(C(F)(F)F)nc4)cn3)cc2)CC1 (configuration not stated)	T
